Values from paper PMC12416549

# TARGET_ENTITY: T1, TNFR1 (Homo sapiens, UniProt P19438)
# T1 chain: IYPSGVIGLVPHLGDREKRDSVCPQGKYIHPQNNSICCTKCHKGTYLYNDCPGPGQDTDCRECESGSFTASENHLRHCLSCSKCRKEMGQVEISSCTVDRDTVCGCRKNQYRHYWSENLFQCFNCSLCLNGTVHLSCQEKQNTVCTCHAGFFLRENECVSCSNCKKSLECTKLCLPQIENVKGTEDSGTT
# MEASUREMENT_PROTOCOL: yeast display SC50
READOUT_LABEL: apparent Kd (screen) (nM)

1. R50F (designed binder) MTLQELLREEALRRAEAEAFRYALELLAEKFPEQKEYLLDLAEEIESQIFSLSGVDVEDVRKFLDKEWAWVKELLAEHPAELAEVEAARAARLAELRAEVEAKVAA
2. P32N (designed binder) MTLQELLREEALRRAEAEAFRYALELLAEKFNEQKEYLLDLAEEIESQIRSLSGVDVEDVRKFLDKEWAWVKELLAEHPAELAEVEAARAARLAELRAEVEAKVAA
## Task Endpoint returns whichever of 1 and 2 has the numerically higher apparent Kd (screen). Answer = label.
## Result 1
